System: MOLT-4 leukemia
Test: NCI tumour cell line growth inhibition, 48 h
Parameter measured: TGI

[
  {
    "Molecule": "S=C1SCC2CCCN12 (centres undefined)",
    "Assay system": "MOLT-4 leukemia",
    "TGI": "> 100 µM"
  },
  {
    "Molecule": "CN[C@@H](C)C(=O)N[C@H](C(=O)N1CCC[C@H]1c1nc(C(=O)c2ccc(F)cc2)cs1)C1CCCCC1",
    "Assay system": "MOLT-4 leukemia",
    "TGI": "57 µM"
  },
  {
    "Molecule": "CCC1(O)C(=O)OCc2c1cc1n(c2=O)Cc2cc3cc4c(cc3nc2-1)OCO4 (centres undefined)",
    "Assay system": "MOLT-4 leukemia",
    "TGI": "0.178 µM"
  },
  {
    "Molecule": "Cc1cccc(CNc2c3ccccc3nc3ccccc23)c1",
    "Assay system": "MOLT-4 leukemia",
    "TGI": "11.3 µM"
  }
]

Reported TGI for `O=C(O)c1ccc2c(O)c(O)ccc2c1` : what is it?
18 µM

Reported TGI for CCOP(=O)(OCC)C(c1ccc(F)cc1)N(C(=O)NC(F)(F)F)c1ccc(F)cc1 (centres undefined) : what is it?
> 100 µM

Reported TGI for COC(=O)C1(Cc2ccc3c(c2)CCC3)Cc2ccc3c(c2C1=O)CCC3 (centres undefined) : what is it?
36.5 µM

Reported TGI for `Cc1[nH]c(=O)nc(N/N=C/c2c3ccccc3c(Cl)c3ccccc23)c1C(=O)Nc1ccc(Cl)cc1` : what is it?
> 100 µM

Reported TGI for CCC(C)C(Nc1c2ccccc2nc2c(C(=O)NCCN(C)C)cccc12)C(=O)O (centres undefined) : what is it?
> 100 µM

Reported TGI for O=C(CC(C(=O)c1ccsc1)c1cccs1)c1ccccc1 (centres undefined) : what is it?
> 100 µM

Reported TGI for COc1cc(/C=C2\C(=O)N(c3cccc(NC(C)=O)c3)C(c3ccccc3)S2(=O)=O)cc(OC)c1OC (centres undefined) : what is it?
86.3 µM

Reported TGI for CC(=O)C1=C(C)N(c2ccccc2)C2(O)C3=C(C(=O)c4ccccc4C3=O)C(O)=CC12Cl (centres undefined) : what is it?
> 100 µM

Reported TGI for `COc1c(C(=O)/C(=N/Nc2ccc(C(=O)O)cc2)C(C)=O)c(O)cc2occc12` : what is it?
> 100 µM

Reported TGI for `CNC(=O)[C@H](Cc1c[nH]c2ccccc12)NC(=O)[C@@H](CC(=O)NO)CC(C)C` : what is it?
> 25 µM

Reported TGI for `Nc1n[n+]([O-])c2ccc(Cl)cc2[n+]1[O-]` : what is it?
> 100 µM

Reported TGI for `O=C(Nc1cc(Cl)c(I)c(Cl)c1)C(F)(F)F` : what is it?
82.7 µM

Reported TGI for `COc1ccc(CCN2CCCn3c2nc2ccccc2c3=O)cc1` : what is it?
> 100 µM

Reported TGI for `CCN(CC)CCC(=O)/C=C/c1ccc(Cl)c(Cl)c1` : what is it?
> 10 µM

Reported TGI for `N=c1oc2ccc3ccccc3c2cc1-c1nc2ccccc2c(=O)[nH]1` : what is it?
> 100 µM

Reported TGI for `Cc1nc2ccccc2c(=O)n1/N=C(\N=Nc1ccc(Cl)cc1)c1cccc(-c2ccco2)c1` : what is it?
> 100 µM

Reported TGI for CN1C/C(=C\c2cccs2)C2=NN(c3ccccc3)C(c3cccs3)C2C1 (centres undefined) : what is it?
> 100 µM

Reported TGI for `Nc1nc(N)nc(CCCCc2nc(N)nc(N)n2)n1` : what is it?
> 100 µM

Reported TGI for `C/C(Cc1ccc2c(c1)OCO2)=N\N=c1\sc2ccccc2n1C` : what is it?
> 100 µM

Reported TGI for `NCCCn1c(Cl)nc2ccccc21` : what is it?
> 100 µM

Reported TGI for `CC(=O)/C=C1\CC(=O)N(C)c2ccccc2N1` : what is it?
> 100 µM

Reported TGI for `Cc1nc(-n2nc(-c3ccccc3)cc2-c2ccccc2)sc1C(=O)CC(=O)C(=O)Nc1ccc(Cl)c(Cl)c1` : what is it?
> 100 µM

====

Overview of recorded TGI for various compounds
Tested on: OVCAR-8 ovarian
Test: NCI tumour cell line growth inhibition, 48 h

[
  {
    "Compound": "Cc1cc(C)c2c(=N)c3ccccc3n(CCCCCCCCn3c4ccccc4c(=N)c4c(C)cc(C)nc43)c2n1",
    "Data value": "3.05 µM"
  },
  {
    "Compound": "CS(=O)(=O)OCCN(CCOS(C)(=O)=O)c1ccc(C=Nc2ccc(-c3csc(Cc4ccccc4)n3)cc2)c(Cl)c1",
    "Data value": "> 66 µM"
  },
  {
    "Compound": "N=C1OC(CN2CCN(c3ccccc3)CC2)CN1C(=O)Nc1ccccc1 (stereo unspecified)",
    "Data value": "> 100 µM"
  },
  {
    "Compound": "N.N.N.N.N#N.N#N.[Cl-].[Os+6]",
    "Data value": "> 100 µM"
  },
  {
    "Compound": "C=CCCC(O)c1cc(C)c(O)c(C)c1 (stereo unspecified)",
    "Data value": "> 100 µM"
  }
]

Reported TGI for `Nc1nc(N)nc(CCCCc2nc(N)nc(N)n2)n1` : what is it?
> 100 µM

Reported TGI for `COc1cc2ncnc(NS(=O)(=O)c3cc4ccccc4s3)c2cc1OC` : what is it?
> 100 µM

Reported TGI for COc1ccc(N2C(=O)C3ON(Cc4ccc(CC(N)=O)cc4)C(c4c5ccccc5c(C)c5ccccc45)C3C2=O)cc1 (stereo unspecified) : what is it?
> 100 µM

Reported TGI for `Cc1ccc(C(=O)Nc2ccc(S(=O)(=O)O)c3cc(S(=O)(=O)O)cc(S(=O)(=O)O)c23)cc1NC(=O)c1cccc(NC(=O)Nc2cccc(C(=O)Nc3cc(C(=O)Nc4ccc(S(=O)(=O)O)c5cc(S(=O)(=O)O)cc(S(=O)(=O)O)c45)ccc3C)c2)c1` : what is it?
> 100 µM

Reported TGI for CC(NCCN(C)C)C1CCC2C3CCc4cc(O)ccc4C3CCC12C (stereo unspecified) : what is it?
11 µM

Reported TGI for `O=C1c2c(c3c4cc(F)ccc4oc3c3[nH]c4ccccc4c23)C(=O)N1O` : what is it?
> 100 µM

Reported TGI for `COc1ccc2c(=O)c(-c3cc(OC)c(OC)cc3OC)coc2c1` : what is it?
> 100 µM

====

Test system: NCI-H23 lung
Test: NCI tumour cell line growth inhibition, 48 h
Parameter measured: TGI

Field: example entries. Status: answers known.
[
  {
    "Compound": "CCCC(=O)Oc1ccc(/C(=C(\\C)c2ccc(Cl)cc2)c2ccc(OCCN(CC)CC)cc2)cc1",
    "TGI": "15.6 µM"
  },
  {
    "Compound": "O=C(O)c1ccc2c(O)c(O)ccc2c1",
    "TGI": "50.5 µM"
  },
  {
    "Compound": "CN(C)N1C(=O)C(=O)N(c2cccc3ccccc23)C1=O",
    "TGI": "> 10 µM"
  },
  {
    "Compound": "C=CCCC(O)c1cc(C)c(O)c(C)c1 (stereo unspecified)",
    "TGI": "> 100 µM"
  },
  {
    "Compound": "CNc1c2ccccc2nc2occ(Cl)c12",
    "TGI": "> 100 µM"
  }
]

Reported TGI for `CNC(=O)[C@H](Cc1c[nH]c2ccccc12)NC(=O)[C@@H](CC(=O)NO)CC(C)C` : what is it?
> 25 µM

Reported TGI for `Cc1ccc(C(=O)Nc2ccc(S(=O)(=O)O)c3cc(S(=O)(=O)O)cc(S(=O)(=O)O)c23)cc1NC(=O)c1cccc(NC(=O)Nc2cccc(C(=O)Nc3cc(C(=O)Nc4ccc(S(=O)(=O)O)c5cc(S(=O)(=O)O)cc(S(=O)(=O)O)c45)ccc3C)c2)c1` : what is it?
> 100 µM

Reported TGI for `CCc1cn2c(/C=N/N=C(N)N)c(-c3cc(C)c(Cl)cc3Cl)nc2s1` : what is it?
3.16 µM

====

System: MOLT-4 leukemia
Assay: NCI tumour cell line growth inhibition, 48 h
Parameter measured: TGI (µM)
Express the result in µM but write the number alone.

Field: example entries. Status: answers known.
[
  {
    "Chemical smiles": "Nc1[nH]nc(Nc2ccccc2)c1-c1nc2ccccc2s1",
    "Unit text": "µM",
    "TGI": 7.81
  },
  {
    "Chemical smiles": "COc1ccc2[nH]c3c(C)c4c(c(C)c3c2c1)CN(C)C=C4",
    "Unit text": "µM",
    "TGI": 37.7
  }
]

We next turn to a different compound, shown below.
I'm curious: which TGI was measured for `Cc1cccc(NC(=O)c2c(N)[n+]([O-])c3ccccc3[n+]2[O-])c1` tested on MOLT-4 leukemia?
81
